FYI, the data here is from patent US20030148958A1.

TARGET: T1, corticotropin releasing factor 2 receptor
T1 sequence (Q13324 whole entry, species assumed, looked up): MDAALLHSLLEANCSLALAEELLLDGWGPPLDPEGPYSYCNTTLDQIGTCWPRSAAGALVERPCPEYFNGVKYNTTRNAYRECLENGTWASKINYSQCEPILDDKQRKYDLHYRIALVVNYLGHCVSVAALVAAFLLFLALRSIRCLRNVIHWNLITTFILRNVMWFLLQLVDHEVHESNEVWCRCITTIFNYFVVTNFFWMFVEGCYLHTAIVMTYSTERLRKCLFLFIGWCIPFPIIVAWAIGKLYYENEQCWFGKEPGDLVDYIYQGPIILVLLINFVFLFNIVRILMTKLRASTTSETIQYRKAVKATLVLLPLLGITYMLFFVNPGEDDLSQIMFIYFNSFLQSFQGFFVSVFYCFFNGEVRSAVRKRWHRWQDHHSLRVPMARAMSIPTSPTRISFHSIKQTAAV
EXPERIMENTAL PROTOCOL: cell-based or functional assay
Ends that are not written are not given here.
METRIC NAME: CRF2R EC50
Reply with a number, then the unit it belongs to.

Here's what some known entries look like.
> print(dat)
                                     binder  test.result
1  IVLSLDVPIGLLQILLEQAKAEAAREQATTNARILARV-NH2 [SEQ ID NO 112]      12.3 nM
2  ZGPPISIDLPFVLLRKMIEIEKQEKEKQQAANNRLLLDTI (C-terminal amide) [SEQ ID NO 190]      39.6 nM
3  ZGPPISIDLPFQLLRKMIEIEKQEKEKQQATTNARILARV (C-terminal amide) [SEQ ID NO 148]      9.45 nM
4  ZGPPISIDLPFLLLRKMIEIEKQEKEKQQAANNRLLLDTI (C-terminal amide) [SEQ ID NO 191]       8.3 nM
5  SQEPPISLDLPIHLLREVLEMTKADQLAQQAHSNRKLLDIA-NH2 [SEQ ID NO 94]       100 nM

Then this binder:
Recorded CRF2R EC50 (binder IVLSLDVPIGLLQILLEQERQRAAREQATTNARILARV-NH2 [SEQ ID NO 111] ): 10.9 nM
